Test system: HepG2
Test: cytotoxicity call (relative viability < 0.9)
Conditions: 10 µM
The whole screen tested about 39,000 compounds, of which about 3,300 (8.5%) were called active. What follows is part of a selection rich in actives, with near analogues and random picks from the rest.
Outcomes: yes for active, no for inactive

>>> assigned_category("COc1ccc(S(=O)(=O)N(C)C[C@@H]2Oc3ccc(NC(=O)Cn4cnnn4)cc3C(=O)N([C@H](C)CO)C[C@@H]2C)cc1")
"no"
>>> assigned_category("Cc1noc(C)c1S(=O)(=O)N(C)C[C@@H]1Oc2ccc(NS(C)(=O)=O)cc2C(=O)N([C@@H](C)CO)C[C@@H]1C")
"no"
>>> assigned_category("C[C@H](CO)N1C[C@H](C)[C@H](CN(C)C(=O)Nc2ccc(F)cc2)Oc2c(NC(=O)Nc3ccc(C(F)(F)F)cc3)cccc2C1=O")
"yes"
>>> assigned_category("C[C@@H]1CN([C@H](C)CO)C(=O)c2cccc(NC(=O)Nc3ccc(C(F)(F)F)cc3)c2O[C@@H]1CN(C)C(=O)Nc1ccc(F)cc1")
"no"

----------
Tested on: HepG2
Experiment: cytotoxicity call (relative viability < 0.9)
Settings: 10 µM
About 3,300 (8.5%) of roughly 39,000 compounds were called active. The list comes from a sample in which actives are over-represented; it also holds close analogues and randomly drawn compounds.
Labels: YES (active), NO (inactive)

>>> assigned_category("C[C@@H]1CCCCO[C@@H](CN(C)C(=O)Nc2ccccc2)[C@@H](C)CN([C@H](C)CO)C(=O)c2cc(NC(=O)Nc3ccc(C(F)(F)F)cc3)ccc2O1")
"YES"
>>> assigned_category("C[C@H](CO)N1C[C@H](C)[C@H](CN(C)C(=O)Nc2ccccc2)OCCCC[C@H](C)Oc2ccc(NC(=O)Nc3ccc(C(F)(F)F)cc3)cc2C1=O")
"NO"
>>> assigned_category("C[C@H]1CCCCO[C@@H](CN(C)C(=O)Nc2ccc(C(F)(F)F)cc2)[C@@H](C)CN([C@@H](C)CO)C(=O)c2cc(NC(=O)Nc3ccccc3)ccc2O1")
"NO"
>>> assigned_category("C[C@H]1CCCCO[C@H](CN(C)C(=O)Nc2ccc(C(F)(F)F)cc2)[C@@H](C)CN([C@@H](C)CO)C(=O)c2cc(NC(=O)Nc3ccccc3)ccc2O1")
"NO"
>>> assigned_category("C[C@@H]1CN([C@@H](C)CO)C(=O)c2cc(NC(=O)c3ccccc3)ccc2O[C@@H](C)CCCCO[C@@H]1CN(C)C(=O)Nc1ccc(C(F)(F)F)cc1")
"YES"
>>> assigned_category("C[C@@H]1CCCCO[C@@H](CN(C)C(=O)Nc2ccccc2)[C@@H](C)CN([C@@H](C)CO)C(=O)c2cc(NC(=O)Nc3ccc(C(F)(F)F)cc3)ccc2O1")
"YES"

----------
System: HepG2
Assay: cytotoxicity call (relative viability < 0.9)
Conditions: 10 µM
In all, about 39,000 compounds went through this assay and about 3,300 (8.5%) were called active. The entries come from a sample that favours actives as a whole.
Outcomes: Y = active, N = inactive

>>> assigned_category("CC(C)NC(=O)Nc1ccc2c(c1)C(=O)N([C@@H](C)CO)C[C@@H](C)[C@H](CN(C)C(=O)Nc1ccc(C(F)(F)F)cc1)OCCCC[C@H](C)O2")
"N"
>>> assigned_category("CC(C)NC(=O)Nc1ccc2c(c1)C(=O)N([C@H](C)CO)C[C@@H](C)[C@@H](CN(C)C(=O)Nc1ccc(C(F)(F)F)cc1)OCCCC[C@@H](C)O2")
"Y"
>>> assigned_category("CC(C)NC(=O)Nc1ccc2c(c1)C(=O)N([C@H](C)CO)C[C@@H](C)[C@H](CN(C)C(=O)Nc1ccc(C(F)(F)F)cc1)OCCCC[C@H](C)O2")
"N"
>>> assigned_category("CC(C)NC(=O)Nc1ccc2c(c1)C(=O)N([C@@H](C)CO)C[C@@H](C)[C@@H](CN(C)C(=O)Nc1ccc(C(F)(F)F)cc1)OCCCC[C@H](C)O2")
"N"
>>> assigned_category("CC(C)NC(=O)Nc1ccc2c(c1)C(=O)N([C@@H](C)CO)C[C@@H](C)[C@H](CN(C)C(=O)Nc1ccc(C(F)(F)F)cc1)OCCCC[C@@H](C)O2")
"Y"
>>> assigned_category("COc1ccc(NC(=O)N(C)C[C@H]2Oc3ccc(NC(=O)Nc4ccc(C(F)(F)F)cc4)cc3C(=O)N([C@H](C)CO)C[C@@H]2C)cc1")
"N"

----------
Test system: HepG2
Test: cytotoxicity call (relative viability < 0.9)
Details: 10 µM
Screen size: about 39,000 compounds; about 3,300 (8.5%) were called active. The sample holds actives, similar compounds and a random draw of the others, so the mix is not that of the screen.
Classes used: Yes for active, No for inactive

>>> assigned_category("Cc1noc(C)c1S(=O)(=O)Nc1ccc2c(c1)C(=O)N([C@H](C)CO)C[C@H](C)[C@@H](CN(C)Cc1ccc(C(=O)O)cc1)O2")
"No"
>>> assigned_category("C[C@@H]1CN([C@@H](C)CO)S(=O)(=O)c2ccc(C#CCC3CCCC3)cc2O[C@H]1CN(C)C(=O)c1cnccn1")
"No"
>>> assigned_category("C[C@H]1CN([C@@H](C)CO)C(=O)c2cc(C#CC3(O)CCCC3)cnc2O[C@H]1CN(C)C(=O)Cc1ccncc1")
"No"
>>> assigned_category("CC(C)(C)[C@H]1CCc2c(sc3nc(-c4ccccc4)cn23)C1")
"No"
>>> assigned_category("C[C@H]1CN([C@@H](C)CO)C(=O)Cc2cc(NC(=O)Nc3ccc(C(F)(F)F)cc3)ccc2O[C@H]1CN(C)C(=O)NC1CCCCC1")
"No"
>>> assigned_category("CCN1[C@H](C(=O)NCCc2cn(C)cn2)[C@@H](CO)[C@@H]2Cn3c(ccc(-c4ccncc4)c3=O)[C@@H]21")
"No"
>>> assigned_category("CCCNC(=O)N(C)C[C@@H]1Oc2cc(C#Cc3ccccn3)ccc2S(=O)(=O)N([C@H](C)CO)C[C@H]1C")
"No"
>>> assigned_category("CC(C)(C)[S@](=O)N1Cc2cc(C(=O)NCc3ccc4c(c3)OCO4)nc(-c3cccc(-c4ccncc4)c3)c2[C@@H]1CCO")
"No"
>>> assigned_category("C[C@H](CO)N1C[C@H](C)[C@@H](CN(C)C(=O)NC2CCCCC2)Oc2ccc(NC(=O)Nc3ccc(C(F)(F)F)cc3)cc2CC1=O")
"No"
>>> assigned_category("CNC(=O)C[C@H]1CC[C@@H]2[C@H](COC[C@H](O)CN2C(=O)Nc2cccc(OC)c2)O1")
"No"
>>> assigned_category("C[C@@H]1CN([C@H](C)CO)C(=O)Cc2cc(NC(=O)Nc3ccc(C(F)(F)F)cc3)ccc2O[C@@H]1CN(C)C(=O)NC1CCCCC1")
"Yes"
>>> assigned_category("O[C@@H]1[C@@H](O)[C@H](Nc2ccccc2)OC[C@H]1O")
"No"
>>> assigned_category("CC(C)NC(=O)Nc1cccc2c1O[C@@H](CN(C)S(=O)(=O)c1ccc(Cl)cc1)[C@@H](C)CN([C@H](C)CO)C2=O")
"No"
>>> assigned_category("COc1ccc(C#Cc2ccc3c(c2)O[C@H](CN(C)C(=O)CN2CCOCC2)[C@@H](C)CN([C@H](C)CO)S3(=O)=O)cc1")
"No"
>>> assigned_category("COC(=O)N[C@H](C(=O)N1CC2(CC2)C[C@H]1c1nc(-c2ccc3c(c2)C(F)(F)c2cc(-c4ccc5nc([C@@H]6[C@H]7CC[C@H](C7)N6C(=O)[C@@H](NC(=O)OC)C(C)C)[nH]c5c4)ccc2-3)c[nH]1)C(C)C")
"No"
>>> assigned_category("Cc1noc(C)c1NC(=O)N(C)C[C@@H]1Oc2cc(C#CCN(C)C)ccc2S(=O)(=O)N([C@@H](C)CO)C[C@H]1C")
"No"
>>> assigned_category("OCC1CCNCC1")
"No"
>>> assigned_category("CCOC(=O)CCc1n[nH]c(=O)[nH]c1=O")
"No"
>>> assigned_category("Cc1noc(C)c1S(=O)(=O)Nc1ccc2c(c1)C(=O)N([C@H](C)CO)C[C@H](C)[C@H](CN(C)S(=O)(=O)c1ccc(Cl)cc1)O2")
"No"
>>> assigned_category("C[C@H]1CN([C@@H](C)CO)C(=O)Cc2cc(NC(=O)CCC(F)(F)F)ccc2O[C@@H]1CN(C)Cc1ccc(-c2ccccc2)cc1")
"Yes"
>>> assigned_category("C[C@H](CO)N1C[C@H](C)[C@H](CN(C)CC2CCCCC2)OCCCC[C@H](C)Oc2ccc(NC(=O)CCCN(C)C)cc2C1=O")
"No"
>>> assigned_category("C[C@@H]1CN([C@@H](C)CO)C(=O)Cc2cc(NC(=O)Nc3ccc(C(F)(F)F)cc3)ccc2O[C@H]1CN(C)C(=O)NC1CCCCC1")
"No"
>>> assigned_category("COCC(=O)N(C)C[C@H]1Oc2cc(C#CCC3CCCC3)ccc2S(=O)(=O)N([C@H](C)CO)C[C@H]1C")
"No"
>>> assigned_category("C[C@H]1CN([C@@H](C)CO)C(=O)Cc2cc(NS(=O)(=O)c3ccc(Cl)cc3)ccc2O[C@H]1CN(C)C(=O)Nc1cccc2ccccc12")
"No"
>>> assigned_category("CN(C)CCCNC(=O)C[C@@H]1C=C[C@H](NS(=O)(=O)c2ccccc2)[C@@H](CO)O1")
"No"
>>> assigned_category("Cc1ccc(S(=O)(=O)N(C)C[C@H]2OCCCC[C@H](C)Oc3ccc(NC(=O)Cc4ccccc4)cc3C(=O)N([C@@H](C)CO)C[C@H]2C)cc1")
"No"
>>> assigned_category("C[C@@H]1CN([C@H](C)CO)C(=O)Cc2cc(NC(=O)Nc3ccc(C(F)(F)F)cc3)ccc2O[C@H]1CN(C)C(=O)NC1CCCCC1")
"No"
>>> assigned_category("COc1ccc(NC(=O)Nc2ccc3c(c2)C(=O)N([C@H](C)CO)C[C@H](C)[C@@H](CN(C)C(=O)Cc2ccccc2)OCCCC[C@@H](C)O3)cc1")
"No"
>>> assigned_category("CCc1nc2ccc(C(=O)NCc3ccc(OC)cc3)cn2c1N(CC)Cc1cccc(Br)c1")
"No"
>>> assigned_category("C[C@@H]1CN([C@@H](C)CO)C(=O)Cc2cc(NC(=O)Nc3ccc(C(F)(F)F)cc3)ccc2O[C@@H]1CN(C)C(=O)NC1CCCCC1")
"Yes"
